Test: Drug concentration in brain of human SUP-M2 cells xenografted SCID mouse at 30 mg/kg, po measured after 24 hrs
Format: ADME, organism-based
Design: dose 30 mg/kg, route oral
Conditions: read-out: Drug uptake
Readout kind: concentration at 24 h (ng/g)
Numeric only. Scale: ng/g

COc1cc([C@@H]2CCN(CCO)C[C@@H]2O)ccc1Nc1ncc2ccc(-c3ccccc3OC)n2n1 (racemic) : 1580

Now for the compound whose concentration at 24 h we want.
Quick check: concentration at 24 h of COc1cc([C@H]2CCN(CCO)C[C@@H]2O)ccc1Nc1ncc2ccc(-c3ccccc3OC)n2n1 (relative stereo) ? 1280
